measurement.description: Human immune cell line THP-1 in vitro assay, cell viability
assay.conditions: thp-1 cells, Cell viability (%), Table 2, Piperlongumine 10 µM, Control 100, LPS alone 86
endpoint: viability at 24 h, 10 µM (%)
All answers are understood in %, so give the number only.

I have this compound here, `COc1cc(/C=C/C(=O)N2CCC=CC2=O)cc(OC)c1OC` , and I need its recorded viability at 24 h, 10 µM.
39

----------
measurement.description: Human immune cell line THP-1 in vitro assay, cell viability
assay.conditions: thp-1 cells, Cell viability (%), Table 1, Piperlongumine 10 µM, co-treated with E.coli LPS, 24 hours, Control 100, LPS alone 91
endpoint: viability at 24 h, 10 µM (%)
# unit: % | format: bare number

What value of viability at 24 h, 10 µM has been recorded for this entry: COc1cc(/C=C/C(=O)N2CCC=CC2=O)cc(OC)c1OC [Piperlongumine]
74

----------
measurement.description: Human oral keratinocytes (HOK) in vitro assay, cell viability by cell counting kit-8
assay.conditions: human, oral keratinocytes, Cell viability (%), Table 3, Piperlongumine 15 µM, HOKs treated with heat killed P.gingivalis, Control 100
endpoint: viability at 24 h, 15 µM (%)
Your answer is read as %, so omit the unit and give the number.

Which viability at 24 h, 15 µM is reported for this compound? `COc1cc(/C=C/C(=O)N2CCC=CC2=O)cc(OC)c1OC`
63.4
